- Test system: 786-0 renal
- experimentalDetails: NCI tumour cell line growth inhibition, 48 h
measuredMetric: TGI

Recorded TGI, per entry:
CCCOC(=O)C1CCC(=O)N1C(=O)C(C)Cl (centres undefined) ... > 100 µM
COc1ccc(-n2cc(-c3cc(OC)c(OC)c(OC)c3)nc2SCc2ccccc2)cc1 ... > 100 µM
CCOc1ccc(NC(=O)C(=O)NO)cc1 ... > 100 µM
Nc1nc(NCCO)c(N=O)c(=O)[nH]1 ... > 100 µM
O=C(Nc1ccccc1)c1nn(-c2cc(S(=O)(=O)O)c([N+](=O)[O-])cc2Cl)[n+](-c2cc(S(=O)(=O)[O-])c([N+](=O)[O-])cc2Cl)n1 ... > 100 µM

Input line: Please give measured TGI of the following entry: N#CC(/C(=N/NC(=O)C(=O)NN)C(=O)Nc1nc([N+](=O)[O-])cs1)c1ccc(Cl)cc1 (centres undefined)
Output line: > 100 µM

Input line: Look up and state reported TGI for `Cc1ccc(NC(=O)Cc2ccc(/C=C/C(=O)c3ncc[nH]3)cc2)cc1`
Output line: > 25 µM

Input line: Annotate the molecule `Cn1c2c(c3ccccc31)CCN(CCN1CCN(c3ccccc3)CC1)C2=O` with its measured TGI.
Output line: > 100 µM

Input line: Provide measured TGI value, entry: `COc1cc2c3c(n(CCCN(CCN)CCCn4c5c(c6cc(OC)c(OC)cc6c4=O)C(=O)c4cc6c(cc4-5)OCO6)c(=O)c2cc1OC)-c1cc2c(cc1C3=O)OCO2`
Output line: 1.51 µM

Input line: Determine its reported TGI: `Cc1cc2cc3cc(C)c(N(C)C)cc3[n+](C)c2cc1N(C)C`
Output line: 18.8 µM

Input line: Give reported TGI value for `c1ccc2c(c1)Nc1ccccc1[P+]21c2ccccc2Nc2ccccc21`
Output line: 2.87 µM

Input line: Give the reported value of TGI for this record: `COC(c1cccc(C(O)(C(F)(F)F)C(F)(F)F)c1)(C(F)(F)F)C(F)(F)F`
Output line: 31.8 µM

Input line: Supply reported TGI belonging to this molecule: `O=S(=O)(Cc1ccc(Cl)cc1Cl)c1ccc(Cl)cc1`
Output line: > 100 µM

Input line: Assign TGI to the following record: `CCN1/C(=C/C=C/c2n(-c3ccccc3)c3ccc(-c4nc5ccccc5s4)cc3[n+]2CC)N(c2ccccc2)c2ccc(-c3nc4ccccc4s3)cc21`
Output line: > 50 µM

----------
- Test system: MALME-3M melanoma
- experimentalDetails: NCI tumour cell line growth inhibition, 48 h
measuredMetric: TGI

CC(C)C[C@H](NC(=O)[C@H](Cc1ccccc1)NC(=O)CCc1ccccc1)B(O)O ... < 0.01 µM
COC(=O)C1=C(C(=O)OC)C(Cc2ccccc2)(OO)OC1=O (centres undefined) ... 24.5 µM
N#Cc1c2c(c(Nc3cccc(C(F)(F)F)c3)n3c1nc1ccccc13)CCC2 ... > 100 µM

Input line: For MALME-3M melanoma, give TGI of the listed compound: COC(=O)CC1C(COC(C)=O)OC(n2cc(C)c(=O)[nH]c2=O)C1OC(C)=O (centres undefined)
Output line: > 100 µM

Input line: With MALME-3M melanoma as the test system, provide measured TGI for this compound: `Nc1nc(NCCO)c(N=O)c(=O)[nH]1`
Output line: > 100 µM

Input line: Enter recorded TGI with MALME-3M melanoma for `CC(=O)Nc1ccc(/C=C/C(=O)c2ccccc2)cc1` here.
Output line: 36.9 µM

Input line: // fetch TGI; item: `Cc1cccc2cc3c(ccc4ccccc43)c[n+]12` ; system: MALME-3M melanoma
Output line: 5.22 µM

Input line: Provide TGI, tested on MALME-3M melanoma, for COc1cc2c(c(O)c1OC)C(O)C1CCC(=O)N1C2c1cccc2ccccc12 (centres undefined) .
Output line: > 100 µM

----------
- Test system: RPMI-8226 leukemia
- experimentalDetails: NCI tumour cell line growth inhibition, 48 h; in the data active = GI50 below about 0.43 µM; inactive = the rest
Reply using exactly one outcome from active, inactive

Please review the following examples before continuing.
Fc1ccc(-c2nn3c(-c4ccc(F)c(Cl)c4)nnc3s2)cc1 ... inactive
COc1cc2cc(C(=O)CCC(=O)O)sc2cc1OC ... inactive
O=S(=O)(Cc1ccc(Cl)cc1Cl)c1ccc(Cl)cc1 ... inactive
Oc1ccc(CN2CCC(N3CCOCC3)CC2)c2cccnc12 ... inactive
O=c1c2c3c(sc2n2c(-c4cc(-c5ccccc5)no4)nnc2n1Cc1ccccc1)CCCC3 ... inactive
Clc1cc2c(cc1Cl)Oc1cc(Cl)c(Cl)cc1O2 ... inactive
N/C(=C\C(=O)n1nc(-c2ccccc2)cc1N)c1ccccc1 ... inactive
Cc1ccc2c(c1)c1nc3cc(C)c(C)cc3nc1n2CCN(C)C ... inactive
COc1ccc2c(c1)=C(C=C1C=CN(O)C=C1)C(=O)N=2 ... inactive
CC(C)c1c(C(=O)Nc2ccccc2)c(-c2ccccc2)c(-c2ccc(F)cc2)n1CC[C@@H]1CC=CC(=O)O1 ... active

Input line: Fill in: this test's call for CC(=O)CCc1ccc(OC2OC(COC(=O)c3cc(O)c(O)c(O)c3)C(O)C(O)C2OC(=O)/C=C/c2ccccc2)cc1 (configuration not stated) is ___
Output line: inactive

Input line: Could you please tell me the result logged for `C#CCN(Cc1nc2cc(C(F)(F)F)ccc2nc1-c1ccccc1)c1ccc(OC(F)(F)F)cc1` in this assay?
Output line: inactive

Input line: Assay result, entry `Cn1cc(C2=C(c3cccc(N)c3)C(=O)NC2=O)c2ccccc21` — outcome?
Output line: inactive

Input line: For `S=C(N/N=C(/c1ccccc1)c1ccccn1)N1CCCCC1` , what call appears in the results of this test?
Output line: active

Input line: Hi team, can someone confirm the assay call for `CC(C)(O)C#Cc1ccc(/C=C/C(=O)c2ccccc2)s1` ?
Output line: inactive

Input line: Given `N#Cc1cccc(OCc2nc(N)nc(N)c2-c2ccc(Cl)c(Cl)c2)c1` , state the outcome it received in this test.
Output line: inactive

Input line: Given `COC(=O)C1=C(C)NC(C)=C(C(=O)OC)C1/C=C(\Cl)c1ccc(Cl)c(Cl)c1` , state the outcome it received in this test.
Output line: inactive

----------
- Tested on: SNB-19 CNS
- experimentalDetails: NCI tumour cell line growth inhibition, 48 h
measuredMetric: TGI

Examples with answers:
COc1ccc(N(CN2C(=O)CCC2C(=O)O)C(C)=O)cc1 (stereo not given) ... > 100 µM
O=Cc1c2ccccc2n2ccc3c4ccccc4[nH]c3c12 ... > 10 µM
O=c1ccc(N=Nc2ccc([N+](=O)[O-])cc2)ccc1O ... > 100 µM
O=C1C2C(C(=O)[N]1[Hg][c]1cccs1)C1(Cl)C(Cl)=C(Cl)C2(Cl)C1(Cl)Cl (stereo not given) ... 3.4 µM
CC[O-].CC[O-].O=C([CH-]C(=O)c1cccnc1)c1ccccc1.O=C([CH-]C(=O)c1cccnc1)c1ccccc1.[Ti+4] ... > 100 µM

Input line: Kindly indicate its recorded TGI. Item: `Cn1cc(C2=C(c3cn(CCO)c4ccccc34)C(=O)NC2=O)c2ccccc21`
Output line: > 25 µM

Input line: Answer with the recorded TGI for the compound listed here: `CCN1C=C/C(=C\C=C/c2cc[n+](CC)c3ccccc23)c2ccccc21`
Output line: 15.2 µM

Input line: Read the entry `COc1cc(OC)cc(OCc2ccc3nc(-c4ccccc4)c(Cl)nc3c2)c1` and write its reported TGI.
Output line: 66.9 µM

Input line: Look up TGI of O=C1CS(=O)(=O)C(c2cccc(Oc3ccccc3)c2)N1c1cccc(Cl)c1 (stereo not given) and report it.
Output line: > 100 µM

Input line: Supply measured TGI of COC(=O)C1CCOC(C)N1C(=O)OC(C)(C)C (stereo not given) in your reply.
Output line: > 100 µM

----------
Below is a list of entries, each paired with its recorded TGI value.
- System: M14 melanoma
- experimentalDetails: NCI tumour cell line growth inhibition, 48 h

c1ccc2c(c1)sc1c3cnccc3ccc21 ... > 100 µM
CCN1/C(=C/C=C/c2n(-c3ccccc3)c3ccc(-c4nc5ccccc5s4)cc3[n+]2CC)N(c2ccccc2)c2ccc(-c3nc4ccccc4s3)cc21 ... 4.62 µM
CC(=O)N1N=C(c2ccc(Nc3nc(Nc4ccc(Cl)cc4)nc(Nc4ccc(Cl)cc4)n3)cc2)CC1c1ccc([N+](=O)[O-])cc1 (stereo unspecified) ... 43.4 µM
N#C/C(=N\Nc1ccc(Cl)cc1)C(=O)Nc1cc(-c2ccccc2)nn1-c1ccccc1 ... > 100 µM

Input line: # return recorded TGI for entry `CC1=C(/C=C/C(=O)O)C(C)(C)CCC1`
Output line: > 100 µM

Input line: Answer with reported TGI of COc1ccc(NC(=O)CC(=O)N2N=C(c3ccccc3)C(N=Nc3ccc(S(=O)(=O)CCOS(=O)(=O)O)cc3)C2=O)cc1 (stereo unspecified)
Output line: > 100 µM

Input line: Determine its reported TGI: CC(C)(C)n1c(=O)[nH]n(C2NN=Cc3cccc4cccc2c34)c1=O (stereo unspecified)
Output line: > 100 µM

Input line: Specify measured TGI for `Cc1cc(NS(=O)(=O)c2ccc(NC(=O)c3ccc4[nH]c5ccccc5c(=O)c4c3)cc2)no1` .
Output line: > 100 µM

Input line: Recall and state the measured TGI for `CC(C)[C@H]1CC[C@H]2[C@@H](CC[C@H]3[C@](C)(CN)CCC[C@]23C)C1` .
Output line: 3.18 µM

Input line: Return TGI (reported value) for this compound: `N#CCCN(c1ccc(/C=C2\N=C(Cc3ccccc3)OC2=O)cc1)S(=O)(=O)c1ccccc1`
Output line: > 100 µM
